system: Glutamate NMDA receptor
assay-overview: Displacement of radioligand from glutamate and glycine binding site of NMDA receptor in rat brain membrane
assay-endpoint: IC50

>>> df
                                 mol_smiles                   system  assay_endpoint  obs_value
0  CC[C@@H]1CCCCN1C(=O)c1cnc(Nc2ccc(C)nc2)c(Cl)c1  Glutamate NMDA receptor            IC50    > 10 µM

----------
system: Metabotropic glutamate receptor 5 (Homo sapiens)
Sequence (P41594 whole entry): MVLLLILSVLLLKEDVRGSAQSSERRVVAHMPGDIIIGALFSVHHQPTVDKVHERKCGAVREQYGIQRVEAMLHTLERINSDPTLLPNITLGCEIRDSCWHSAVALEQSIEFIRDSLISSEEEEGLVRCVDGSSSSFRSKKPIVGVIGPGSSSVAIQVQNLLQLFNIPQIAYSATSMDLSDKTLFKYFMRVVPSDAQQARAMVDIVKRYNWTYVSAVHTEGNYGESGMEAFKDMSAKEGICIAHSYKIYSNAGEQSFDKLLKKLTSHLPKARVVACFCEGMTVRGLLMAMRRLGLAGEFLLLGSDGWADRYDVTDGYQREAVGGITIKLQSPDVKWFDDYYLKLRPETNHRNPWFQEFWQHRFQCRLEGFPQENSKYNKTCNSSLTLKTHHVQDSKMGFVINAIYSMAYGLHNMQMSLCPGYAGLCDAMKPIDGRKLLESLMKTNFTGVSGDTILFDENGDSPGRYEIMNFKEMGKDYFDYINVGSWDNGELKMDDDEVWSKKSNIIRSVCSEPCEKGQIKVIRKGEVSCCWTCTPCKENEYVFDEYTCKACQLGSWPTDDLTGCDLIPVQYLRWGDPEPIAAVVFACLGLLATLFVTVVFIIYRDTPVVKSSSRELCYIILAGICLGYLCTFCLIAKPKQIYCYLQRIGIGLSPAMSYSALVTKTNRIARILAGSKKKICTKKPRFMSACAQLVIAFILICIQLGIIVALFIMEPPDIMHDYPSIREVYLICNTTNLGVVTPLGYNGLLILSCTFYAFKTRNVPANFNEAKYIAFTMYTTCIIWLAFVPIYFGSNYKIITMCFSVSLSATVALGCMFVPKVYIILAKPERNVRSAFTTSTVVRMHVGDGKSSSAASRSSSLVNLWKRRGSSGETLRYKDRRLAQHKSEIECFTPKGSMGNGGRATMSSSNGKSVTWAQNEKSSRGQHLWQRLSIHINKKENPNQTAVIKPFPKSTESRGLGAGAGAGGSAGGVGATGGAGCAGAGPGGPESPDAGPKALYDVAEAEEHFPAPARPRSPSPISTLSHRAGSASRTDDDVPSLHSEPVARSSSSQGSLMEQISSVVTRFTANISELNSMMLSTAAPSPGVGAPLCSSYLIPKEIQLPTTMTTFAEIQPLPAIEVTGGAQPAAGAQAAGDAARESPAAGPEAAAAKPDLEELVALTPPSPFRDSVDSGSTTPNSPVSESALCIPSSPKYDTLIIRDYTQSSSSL
assay-overview: Antagonist activity at human mGluR5 assessed as inhibition of glutamate-induced elevation of intracellular calcium concentration
Type: functional, cell-based
pIC50: −log10 of the molar value.
Decision: pIC50 compared against 6; not below it gives rule met, below it gives rule not met.

>>> print(df.to_string())
                                    compound                                    system  assigned_category
 0       CCN(CC)C(=O)c1ccc(Nc2ccc(Cl)cc2)nc1  Metabotropic glutamate receptor 5 (Homo sapiens)           rule met
 1       O=C(c1ccc(Nc2ccc(F)cc2)nc1)N1CCCCC1  Metabotropic glutamate receptor 5 (Homo sapiens)       rule not met
 2  CC[C@@H]1CCCCN1C(=O)c1cnc(Nc2ccc(C)nc2)c(Cl)c1  Metabotropic glutamate receptor 5 (Homo sapiens)           rule met
 3      O=C(c1ccc(Nc2ccc(Cl)cc2)nc1)N1CCCCC1  Metabotropic glutamate receptor 5 (Homo sapiens)           rule met
 4  CCCCC1CCCCN1C(=O)c1cnc(Nc2ccc(C)nc2)c(Cl)c1 (racemic)  Metabotropic glutamate receptor 5 (Homo sapiens)           rule met
 5      O=C(c1cnc(Nc2ccc(Cl)cc2)cn1)N1CCCCC1  Metabotropic glutamate receptor 5 (Homo sapiens)       rule not met
 6  CCCC1CCCCN1C(=O)c1cnc(Nc2ccc(C)nc2)c(Cl)c1 (racemic)  Metabotropic glutamate receptor 5 (Homo sapiens)           rule met
 7      COc1ccc(Nc2ccc(C(=O)N3CCCCC3)cn2)cc1  Metabotropic glutamate receptor 5 (Homo sapiens)       rule not met
 8  CC1CCCN(C(=O)c2ccc(Oc3ccc(Cl)cc3)nc2)C1 (configuration not stated)  Metabotropic glutamate receptor 5 (Homo sapiens)       rule not met
 9  CC1CCCN(C(=O)c2ccc(Nc3ccc(Cl)cc3)cc2)C1 (configuration not stated)  Metabotropic glutamate receptor 5 (Homo sapiens)       rule not met
10   CC1CCN(C(=O)c2ccc(Nc3ccc(Cl)cc3)nc2)CC1  Metabotropic glutamate receptor 5 (Homo sapiens)       rule not met
11          O=C(c1ccc(Nc2ccccc2)nc1)N1CCCCC1  Metabotropic glutamate receptor 5 (Homo sapiens)       rule not met
